details: in 2-butanone, 318.15 K
VALUE_KIND: solubility (mole fraction)
Keep it simple and answer with nothing but the number.

So, Cc1c(C(=O)O)cccc1[N+](=O)[O-] ? Its solubility (mole fraction) was 0.0786

---

settings: in acetonitrile, 298.15 K
VALUE_KIND: solubility (mole fraction)
The response must contain the number and no unit.

Briefly, solubility (mole fraction) measured for Cc1c(C(=O)O)cccc1[N+](=O)[O-] : 0.0138

---

details: in isopropanol, 290.65 K
VALUE_KIND: solubility (mole fraction)
API doc: respond with a numeric literal and nothing else, no unit.

// solubility (mole fraction) lookup, molecule = Cc1c(C(=O)O)cccc1[N+](=O)[O-] , result: 0.0184

---

conditions: in 1,4-dioxane, 313.15 K
VALUE_KIND: solubility (mole fraction)
Output: the number by itself.

Entry Cc1c(C(=O)O)cccc1[N+](=O)[O-] — recorded solubility (mole fraction) = 0.0884

---

details: in acetonitrile, 315.65 K
VALUE_KIND: solubility (mole fraction)
Could you respond with only the numeric value?

Given item Cc1c(C(=O)O)cccc1[N+](=O)[O-] , the value recorded as its solubility (mole fraction) is 0.0226

---

details: in 2-butanone, 310.65 K
VALUE_KIND: solubility (mole fraction)
No unit in the answer, please; the number alone is enough.

solubility (mole fraction) recorded for this compound, Cc1c(C(=O)O)cccc1[N+](=O)[O-] , is 0.0722
